# PROTOCOL_SUMMARY: Bioavailability was measured in rat after oral administration; 2-4
# Assay type: ADME, organism-based
# EXPERIMENTAL_CONTEXT: in vivo, read-out: Bioavailabiility
MEASUREMENT_NAME: bioavailability (%)
Quick reminder: number only, in %, skip the unit.

Which bioavailability is reported for this compound? "Cc1ccc2[nH]c(CN(C)C(=O)c3ccc4c(c3)CN(C)C(=O)[C@H](CC(=O)O)N4)nc2n1" 4

----------
# PROTOCOL_SUMMARY: Bioavailability was measured in rat after oral administration; 3-7
# Assay type: ADME, organism-based
# EXPERIMENTAL_CONTEXT: in vivo, read-out: Bioavailabiility
MEASUREMENT_NAME: bioavailability (%)
Please state the figure in %; there is no need to write the unit.

Please give the measured bioavailability for this compound: "CN(Cc1nc2ccccc2[nH]1)C(=O)c1ccc2c(c1)CN(C)C(=O)[C@H](CC(=O)O)N2" 7

----------
# MEASURED_TARGET: Integrin alpha-V/beta-3 (Homo sapiens, UniProt P05106+P06756)
# Sequence (P05106 27-788 limits assumed): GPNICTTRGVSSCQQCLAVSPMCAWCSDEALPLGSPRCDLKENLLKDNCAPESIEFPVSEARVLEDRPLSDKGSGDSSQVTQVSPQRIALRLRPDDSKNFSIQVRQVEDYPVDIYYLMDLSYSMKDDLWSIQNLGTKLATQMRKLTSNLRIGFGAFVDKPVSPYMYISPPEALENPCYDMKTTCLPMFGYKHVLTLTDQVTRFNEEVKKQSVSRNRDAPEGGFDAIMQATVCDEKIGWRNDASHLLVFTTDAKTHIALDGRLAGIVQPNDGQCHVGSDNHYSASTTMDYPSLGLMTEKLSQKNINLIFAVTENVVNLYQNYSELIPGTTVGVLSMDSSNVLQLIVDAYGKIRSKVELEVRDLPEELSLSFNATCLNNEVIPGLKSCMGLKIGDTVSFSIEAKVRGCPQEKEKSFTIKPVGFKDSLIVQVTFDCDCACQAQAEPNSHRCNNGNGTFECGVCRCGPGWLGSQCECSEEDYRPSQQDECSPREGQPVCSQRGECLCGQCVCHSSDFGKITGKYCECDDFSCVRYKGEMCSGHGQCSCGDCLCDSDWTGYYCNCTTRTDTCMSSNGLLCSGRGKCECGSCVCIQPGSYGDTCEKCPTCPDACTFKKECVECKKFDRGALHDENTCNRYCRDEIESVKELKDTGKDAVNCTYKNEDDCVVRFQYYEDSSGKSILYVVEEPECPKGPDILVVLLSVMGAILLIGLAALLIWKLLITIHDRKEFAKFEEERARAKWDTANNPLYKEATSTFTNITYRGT
# Sequence (P06756 31-889 limits assumed): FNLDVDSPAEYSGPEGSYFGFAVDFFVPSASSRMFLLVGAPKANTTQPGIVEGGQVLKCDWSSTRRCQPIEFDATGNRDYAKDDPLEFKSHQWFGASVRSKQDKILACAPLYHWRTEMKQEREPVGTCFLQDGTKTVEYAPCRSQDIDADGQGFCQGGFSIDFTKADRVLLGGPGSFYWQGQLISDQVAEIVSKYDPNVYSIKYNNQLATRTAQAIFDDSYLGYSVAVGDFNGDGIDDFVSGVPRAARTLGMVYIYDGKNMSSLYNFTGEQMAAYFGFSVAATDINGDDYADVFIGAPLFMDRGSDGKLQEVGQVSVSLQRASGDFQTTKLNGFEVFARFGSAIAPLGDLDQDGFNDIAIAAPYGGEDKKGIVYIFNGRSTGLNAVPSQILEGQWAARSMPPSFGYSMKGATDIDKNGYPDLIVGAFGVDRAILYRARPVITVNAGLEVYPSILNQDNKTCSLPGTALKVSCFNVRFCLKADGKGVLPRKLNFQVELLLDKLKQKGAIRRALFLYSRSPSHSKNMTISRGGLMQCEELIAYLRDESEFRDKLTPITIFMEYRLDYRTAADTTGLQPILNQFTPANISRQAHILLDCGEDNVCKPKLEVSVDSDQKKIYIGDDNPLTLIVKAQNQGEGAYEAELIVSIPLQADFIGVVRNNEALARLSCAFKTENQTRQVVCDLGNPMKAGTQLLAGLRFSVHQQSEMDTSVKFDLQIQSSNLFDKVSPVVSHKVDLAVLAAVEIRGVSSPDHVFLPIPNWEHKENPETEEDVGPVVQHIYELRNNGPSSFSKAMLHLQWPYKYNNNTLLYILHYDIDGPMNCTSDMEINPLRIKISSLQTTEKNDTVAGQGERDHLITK
# Sequence (P06756 891-1048 limits assumed): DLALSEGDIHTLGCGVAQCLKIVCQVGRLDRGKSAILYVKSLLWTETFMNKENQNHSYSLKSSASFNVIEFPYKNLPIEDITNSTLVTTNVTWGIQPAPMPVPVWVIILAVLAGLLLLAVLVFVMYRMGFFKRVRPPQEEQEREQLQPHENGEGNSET
# PROTOCOL_SUMMARY: Antagonistic activity for human vitronectin receptor (alphaV-beta3) from platelets
# Type: functional
Would you kindly list pKi for each of these molecules?
Field pKi (float): negative decimal logarithm of the concentration in molar.

Sample CN(Cc1nc2ccc[nH]c-2n1)C(=O)c1ccc2c(c1)CN(CCC(C)(C)C)C(=O)[C@H](CC(=O)O)N2 (racemic) — what was its pKi? 8.60

Ok, now COCCN1Cc2cc(C(=O)NCc3nc4ccc(C)[nH]c-4n3)ccc2N[C@@H](CC(=O)O)C1=O (racemic) 7.30

// next record CN(Cc1nc2cc[nH]nc-2n1)C(=O)c1ccc2c(c1)CN(C)C(=O)[C@H](CC(=O)O)N2 (racemic) 7.72

Can you check "CN(Cc1nc2ccc[nH]c-2n1)C(=O)c1ccc2c(c1)CN(C)C(=O)[C@H](CC(=O)O)N2" next? 8.52

Moving on to Cc1ccc2[nH]c(CNC(=O)c3ccc4c(c3)CN(Cc3ccccc3)C(=O)[C@H](CC(=O)O)N4)nc2n1 (racemic) 7.22

For "Cc1ccc2[nH]c(CN(C)C(=O)c3ccc4c(c3)CN(C)C(=O)[C@H](CC(=O)O)N4)nc2n1" then? 8.52

Moving on to the next molecule: "Cc1cc(C)c2[nH]c(CN(C)C(=O)c3ccc4c(c3)CN(C)C(=O)[C@H](CC(=O)O)N4)nc2n1" 6.15

Cool, now CC(C)N1Cc2cc(C(=O)N(C)Cc3nc4ncccc4[nH]3)ccc2N[C@@H](CC(=O)O)C1=O (racemic) 8.40

Also COCCN1Cc2cc(C(=O)N(C)Cc3nc4ncccc4[nH]3)ccc2N[C@@H](CC(=O)O)C1=O (racemic) ? 8.60

What do you have for "Cc1ccc2nc(CNC(=O)c3ccc4c(c3)CN(C)C(=O)[C@H](CC(=O)O)N4)nc-2[nH]1" ? 7.35

Now try Cc1ccc2nc(CN(C)C(=O)c3ccc4c(c3)CN(Cc3ccccc3)C(=O)[C@H](CC(=O)O)N4)nc-2[nH]1 (racemic) . 7.89

Moving on to Cc1ccc2[nH]c(CNC(=O)c3ccc4c(c3)CNC(=O)[C@H](CC(=O)O)N4)nc2n1 (racemic) 7.05

Same for "CN(Cc1nc2ncncc2[nH]1)C(=O)c1ccc2c(c1)CN(C)C(=O)[C@H](CC(=O)O)N2" 7.64

"Cc1ccc2nc(CN(C)C(=O)c3ccc4c(c3)CNC(=O)[C@H](CC(=O)O)N4)nc-2[nH]1" , same question. 8.00

----------
# PROTOCOL_SUMMARY: Biological half-life measured in plasma of rat; 9-16
# Format: ADME, organism-based
MEASUREMENT_NAME: half-life (min)
Numeric answer only, unit min assumed.

# half-life lookup, item "CN(Cc1nc2ccccc2[nH]1)C(=O)c1ccc2c(c1)CN(C)C(=O)[C@H](CC(=O)O)N2" 16

----------
# PROTOCOL_SUMMARY: Plasma clearance was measured in rat
# Type: ADME, organism-based
# EXPERIMENTAL_CONTEXT: plasma
clearance strictly under 30 mL/min/kg means Y; at 30 mL/min/kg or over means N.

Is 30 mL/min/kg strictly greater than the compound's reported clearance? compound: CN(Cc1nc2ccc[nH]c-2n1)C(=O)c1ccc2c(c1)CN(CCC(C)(C)C)C(=O)[C@H](CC(=O)O)N2 (racemic) N

Similarly, "CN(Cc1nc2ccccc2[nH]1)C(=O)c1ccc2c(c1)CN(C)C(=O)[C@H](CC(=O)O)N2" ? N

Query COCCN1Cc2cc(C(=O)N(C)Cc3nc4ncccc4[nH]3)ccc2N[C@@H](CC(=O)O)C1=O (racemic) next N

For "Cc1ccc2nc(CNC(=O)c3ccc4c(c3)CN(C)C(=O)[C@H](CC(=O)O)N4)nc-2[nH]1" then? Y

How about "Cc1ccc2[nH]c(CN(C)C(=O)c3ccc4c(c3)CN(C)C(=O)[C@H](CC(=O)O)N4)nc2n1" ? Y

----------
# PROTOCOL_SUMMARY: Oral bioavailability in rat
# Format: ADME, organism-based
# EXPERIMENTAL_CONTEXT: in vivo
MEASUREMENT_NAME: bioavailability (%)
Please reply with the bare figure in % and do not write the unit itself.

Looking for the measured bioavailability of COCCN1Cc2cc(C(=O)N(C)Cc3nc4ncccc4[nH]3)ccc2N[C@@H](CC(=O)O)C1=O (racemic) , can you help? 4

Then what about the compound "Cc1ccc2nc(CNC(=O)c3ccc4c(c3)CN(C)C(=O)[C@H](CC(=O)O)N4)nc-2[nH]1" ? 8

----------
# PROTOCOL_SUMMARY: Biological half-life measured in plasma of rat
# Format: ADME, organism-based
Field: half-life. Provide a value for each of the molecules that follow.
Supply the numeric figure in min, leaving out any unit text.

Find the recorded half-life belonging to "Cc1ccc2nc(CNC(=O)c3ccc4c(c3)CN(C)C(=O)[C@H](CC(=O)O)N4)nc-2[nH]1" and report it. 92

Try this molecule next: CN(Cc1nc2ccc[nH]c-2n1)C(=O)c1ccc2c(c1)CN(CCC(C)(C)C)C(=O)[C@H](CC(=O)O)N2 (racemic) 14

Again, but for COCCN1Cc2cc(C(=O)N(C)Cc3nc4ncccc4[nH]3)ccc2N[C@@H](CC(=O)O)C1=O (racemic) 25

----------
# PROTOCOL_SUMMARY: Biological half-life measured in plasma of rat; 22-25
# Assay type: ADME, organism-based
MEASUREMENT_NAME: half-life (min)
Express it in min; write the number only.

Entry under review: "Cc1ccc2[nH]c(CN(C)C(=O)c3ccc4c(c3)CN(C)C(=O)[C@H](CC(=O)O)N4)nc2n1" . Reported half-life? 25
